# credit: patent US9309242B2

system-under-test: Ba/F3-FGFR1-transfected cells (Homo sapiens, UniProt P11362)
Construct: BAF3-FGFR1 (MIN IL3) pIC50; other: minus IL3
Sequence (P11362 whole entry, change not shown): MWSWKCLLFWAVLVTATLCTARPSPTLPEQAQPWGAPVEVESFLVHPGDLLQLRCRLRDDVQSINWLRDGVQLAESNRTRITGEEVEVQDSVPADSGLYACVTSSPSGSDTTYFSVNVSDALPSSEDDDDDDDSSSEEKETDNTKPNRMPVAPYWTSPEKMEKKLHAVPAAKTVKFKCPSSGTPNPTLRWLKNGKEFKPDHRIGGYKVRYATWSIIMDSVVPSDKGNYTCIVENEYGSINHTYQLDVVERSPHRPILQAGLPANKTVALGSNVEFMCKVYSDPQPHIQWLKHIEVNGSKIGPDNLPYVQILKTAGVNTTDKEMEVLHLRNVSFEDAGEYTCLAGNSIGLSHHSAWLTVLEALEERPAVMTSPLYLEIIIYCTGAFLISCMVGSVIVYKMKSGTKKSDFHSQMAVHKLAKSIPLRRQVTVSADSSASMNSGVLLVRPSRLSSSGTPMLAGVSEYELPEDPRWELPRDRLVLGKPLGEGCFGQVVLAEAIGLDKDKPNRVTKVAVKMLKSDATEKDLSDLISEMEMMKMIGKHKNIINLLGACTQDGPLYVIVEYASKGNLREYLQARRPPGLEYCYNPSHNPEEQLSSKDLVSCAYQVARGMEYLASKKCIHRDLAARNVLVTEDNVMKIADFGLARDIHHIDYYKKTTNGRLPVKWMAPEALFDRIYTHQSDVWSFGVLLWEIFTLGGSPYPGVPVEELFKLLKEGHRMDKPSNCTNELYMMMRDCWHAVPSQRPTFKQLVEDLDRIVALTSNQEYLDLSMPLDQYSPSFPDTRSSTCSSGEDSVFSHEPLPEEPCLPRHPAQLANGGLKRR
assay-comment: Ba/F3-FGFR1 (minus IL3) cellular proliferation assay, Alamar Blue
Format: cell-based
Response field label: string, one of Fulfilled (BAF3-FGFR1 (MIN IL3) pIC50 strictly below 7) or Not fulfilled.

[
  {
    "molecule": "COc1cc(OC)c(F)c(/N=c2\\ccc3ncc(-c4cnn(C)c4)nc3n2CCCO)c1F (single isomer, unassigned) [Compound 17]",
    "assigned-class": "Not fulfilled"
  },
  {
    "molecule": "COc1cc(OC)c(F)c(N(CC(=O)c2cnn(C)c2)c2ccc3ncc(-c4cnn(C)c4)nc3n2)c1 [Compound 225]",
    "assigned-class": "Fulfilled"
  },
  {
    "molecule": "COc1cc(/N=c2\\ccc3ncc(-c4cnn(C)c4)nc3n2CCN2CCOCC2)c(F)c(OC)c1 [Compound 148]",
    "assigned-class": "Not fulfilled"
  },
  {
    "molecule": "CNCCn1/c(=N/c2c(Cl)ccc(OC)c2Cl)ccc2ncc(-c3cnn(C)c3)nc21 [Compound 84]",
    "assigned-class": "Fulfilled"
  },
  {
    "molecule": "COc1cc(OC)c(F)c(N(Cc2ncccn2)c2ccc3ncc(-c4cnn(C)c4)nc3n2)c1 [Compound 9]",
    "assigned-class": "Not fulfilled"
  },
  {
    "molecule": "COc1cc(OC)c(F)c(N(Cc2cnccn2)c2ccc3ncc(-c4cnn(C)c4)nc3n2)c1F [Compound 10]",
    "assigned-class": "Not fulfilled"
  }
]

Q: Determine if COc1cc(OC)c(F)c(N(CC2CCC(=O)N2C)c2ccc3ncc(-c4cnn(C)c4)nc3n2)c1 (stereo not drawn) [Compound 159] shows BAF3-FGFR1 (MIN IL3) pIC50 strictly lower than 7.
A: Fulfilled

Q: I wonder whether COc1cc(OC)c(F)c(N(CC2CCCCO2)c2ccc3ncc(-c4cnn(C)c4)nc3n2)c1 (stereo not drawn) [Compound 139] has BAF3-FGFR1 (MIN IL3) pIC50 below 7. Can you tell?
A: Not fulfilled

Q: BAF3-FGFR1 (MIN IL3) pIC50 strictly < 7 for this molecule? COc1cc(/N=c2\ccc3ncc(-c4cnn(C)c4)nc3n2CC2CCC(=O)N2)c(F)c(OC)c1 (stereo not drawn) [Compound 53]
A: Not fulfilled

Q: # strict comparison: is reported BAF3-FGFR1 (MIN IL3) pIC50 < 7? input = COc1cc(OC)cc(N(Cc2ncc[nH]2)c2ccc3ncc(N4CCOCC4)nc3n2)c1 [Compound 293]
A: Not fulfilled

Q: BAF3-FGFR1 (MIN IL3) pIC50 strictly < 7 for this molecule? COc1cc(OC)cc(N(CC2CCC(=O)N2)c2ccc3ncc(-c4cnn(C)c4)nc3n2)c1 (stereo not drawn) [Compound 49]
A: Fulfilled
